Hello, the source for this data is PubChem BioAssay (NCATS), in case you need it.

Target: Cytochrome P450 2D6 (Homo sapiens) (UniProt P10635)
Sequence (P10635 whole entry, looked up): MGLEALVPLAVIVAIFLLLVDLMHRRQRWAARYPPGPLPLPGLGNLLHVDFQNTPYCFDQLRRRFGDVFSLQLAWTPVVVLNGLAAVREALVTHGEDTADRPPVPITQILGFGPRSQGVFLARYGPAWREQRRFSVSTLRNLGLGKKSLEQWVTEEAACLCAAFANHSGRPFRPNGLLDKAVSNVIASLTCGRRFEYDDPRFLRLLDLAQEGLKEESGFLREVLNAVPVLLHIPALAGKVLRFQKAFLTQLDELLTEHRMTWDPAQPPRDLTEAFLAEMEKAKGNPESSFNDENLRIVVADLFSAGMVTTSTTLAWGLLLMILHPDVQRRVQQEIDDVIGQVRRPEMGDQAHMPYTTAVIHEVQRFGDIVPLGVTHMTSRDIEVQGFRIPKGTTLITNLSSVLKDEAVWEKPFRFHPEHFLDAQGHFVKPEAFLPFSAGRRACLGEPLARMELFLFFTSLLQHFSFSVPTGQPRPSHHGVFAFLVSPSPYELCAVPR
Assay: Cytochrome P450 family 2 subfamily D member 6 (CYP2D6) small molecule antagonists: luciferase biochemical (cell-free) qHTS assay (AID 1645840); also: nearly all actives have a fitted effect of over 55% in size
Details: P450-Glo CYP2D6 enzyme, luciferin luminescence, 1 h; series mostly up to 57.4 µM
Excerpt: National Center for Advancing Translational Sciences [NCATS] Assay Overview: Cytochrome P450 (CYP) enzymes are membrane-bound hemeproteins that play a key role in metabolism of drugs and xenobiotics. Assaying the effect of chemicals on CYP isozymes is useful to minimize the adverse drug reactions and toxicities in drug development process. […] The luciferin products formed are detected with a luciferin detection reagent, and the amount of light produced is proportional to CYP activity. […]
Inconclusive results are not listed. The source made the active and inactive calls. Calls follow the shape of the dose curve; as a rule, active = well fitted inhibition curve with a large enough effect in the repeat runs; inconclusive = weak or mixed curves; inactive = flat fitted curve, though single readings scatter.
Write down one outcome, taken from active, inactive

Consider the worked cases shown below.
NC1=NC2(c3cc(NC(=O)c4ccc(F)cn4)ccc3F)COCC2CS1 (stereo not given) = active
Cc1nc2cc(-c3cc(F)cc(C#N)c3)ccc2s1 = inactive
COc1ccc(-c2ccn(CC[C@](C)(C(=O)NO)S(C)(=O)=O)c(=O)c2)c(F)c1 = inactive
Cc1cc(OCCN2CCOCC2)nn1-c1ccc2ccccc2c1 = active
Cc1cn(C[C@H](N)C(=O)O)c(=O)n(Cc2ccsc2C(=O)O)c1=O = inactive
CN(C)c1ccc(C2O[C@@H](c3ccccc3)C[C@H](c3ccccc3)O2)cc1 (stereo not given in full) = inactive

Query block: Test call, this compound: Oc1ccc(CC2NCCc3cc(O)c(O)cc32)cc1 (stereo not given)
Result block: inactive

Query block: CCCN(CCN1CCN(c2ccccc2OC)CC1)C1CCc2ncsc2C1 (stereo not given) ?
Result block: active

Query block: `Cc1ccccc1NC(=O)Nc1ccc(CN2C(=O)N([C@@H](CC(C)C)C(=O)N[C@@H](CC(=O)O)c3ccccc3)C(=O)C2(C)C)cc1` ?
Result block: inactive

Query block: `CCOC(=O)COc1ccc2c(c1)C[C@@H](NC[C@H](O)c1cccc(Cl)c1)CC2` ?
Result block: active

###

Test system: HACAT
Assay: qHTS assay to identify novel small-molecules to repurpose for Merkel cell carcinoma treatment (AID 1296009); also: nearly all actives have a fitted effect of over 60% in size
Conditions: MCC and control cell lines, CellTiter-Glo viability, 72 h; at 44.8 µM (top of the series) unless noted
Records with an inconclusive call do not appear. Active and inactive are the calls of the source. Calls come from the whole dose curve; as a rule, active = well fitted inhibition curve with a large enough effect; inconclusive = small, poorly fitted or top-dose-only effect; inactive = flat fitted curve, though single readings scatter.
quantity: outcome

NC[C@@H]1O[C@@H](O[C@@H]2[C@@H](O[C@@H]3O[C@H](CO)[C@@H](O)[C@H]3O)[C@H](O)[C@@H](N)C[C@H]2N)[C@@H](N)[C@H](O)[C@H]1O = inactive [at 9.27 µM]
C/C=C(/C)C(=O)OC1CC(C)(C)CC2C3=CCC4C5(C)CCC(OC6OC(C)C(OC7OC(C(=O)O)C(O)C(OC8OC(CO)C(O)C(O)C8OC8OC(CO)C(O)C(O)C8O)C7O)C(O)C6O)C(C)(C)C5CCC4(C)C3(C)C(OC(=O)/C=C/C=C/C=C/CCC)C(OC(C)=O)C12CO (centres undefined) = inactive [at 9.27 µM]
CC(=O)OC1C(CO)OC(O[C@H]2[C@H](OC(=O)[C@]34CCC(C)(C)C[C@H]3C3=CCC5[C@@]6(C)CC[C@H](O[C@@H]7O[C@H](C(=O)O)[C@@H](O)[C@H](O[C@@H]8OC[C@@H](O)[C@H](O)[C@H]8O)[C@H]7O[C@@H]7O[C@H](CO)[C@H](O)[C@H](O)[C@H]7O)[C@@](C)(C=O)C6CC[C@@]5(C)[C@]3(C)C[C@H]4O)O[C@H](C)[C@H](OC3OC(C)C(OC4OCC(O)C(O)C4O)C(O)C3O)[C@@H]2O)C(O)C1O (some centres undefined) = inactive [at 9.27 µM]

###

Tested on: Zika virus NS2B-NS3 protease (unlinked complex)
Test: Primary screen GU Rhodamine qHTS for Zika virus inhibitors: Unlinked NS2B-NS3 protease assay (AID 1347159); also: % is scaled to controls: 0 for no effect and ±100 for the full control effect; nearly all actives have a fitted effect of over 60% in size
Settings: Recombinant ZIKV NS2B-NS3 protease, Rhodamine110 substrate fluorescence; series mostly up to 107 µM
From the text: Avindra Nath, Ph.D., National Institute of Neurological Disorders and Stroke (NINDS), Bethesda, MD Radhakrishnan Padmanabhan, Ph.D., Georgetown University (GU), Washington D.C. Zika Virus causes congenital defects, including microcephaly and is associated with Guillain-Barre syndrome, eningoencephalitis and myelitis in infected adult. […]
Results filed as inconclusive are left out. Active and inactive are the calls of the source. Calls come from the whole dose curve; as a rule, active = well fitted inhibition curve with a large enough effect; inconclusive = small, poorly fitted or top-dose-only effect; inactive = no such curve, though single readings can be large or run the other way.
Measured activity change, negative = inhibition values are reported for all entries that follow.

Query block: Request - read-out activity change, negative = inhibition | tested on Zika virus NS2B-NS3 protease (unlinked complex) | compound C[C@@H]1O[C@@H](O[C@H]2[C@H](OC(=O)[C@]34CCC(C)(C)C[C@H]3C3=CCC5[C@@]6(C)C[C@@H](O)[C@@H](O[C@@H]7O[C@H](CO)[C@@H](O)[C@H](O)[C@H]7O)[C@@](C)(CO)C6[C@H](O)C[C@@]5(C)[C@]3(C)CC4)OC[C@H](O)[C@@H]2O)[C@H](O)[C@H](O[C@@H]2OC[C@](O)(CO)[C@H]2O)[C@H]1O[C@@H]1OC[C@@H](O)[C@H](O[C@H]2O[C@H](C)[C@@H](O)[C@H](O)[C@@H]2O)[C@H]1O (stereo not given in full)
Result block: 9.3% [at 19.1 µM] (inactive)

Query block: CC(C)=CCC[C@](C)(O[C@@H]1O[C@H](CO[C@@H]2O[C@@H](CO)[C@H](O)[C@H]2O[C@@H]2OC[C@@H](O)[C@H](O)[C@H]2O)[C@@H](O)[C@H](O)[C@H]1O)[C@H]1CC[C@]2(C)[C@@H]1[C@H](O)CC1[C@@]3(C)CC[C@H](O[C@@H]4O[C@H](CO)[C@@H](O)[C@H](O)[C@H]4O[C@@H]4O[C@H](CO)[C@@H](O)[C@H](O)[C@H]4O)C(C)(C)C3CC[C@]12C (stereo not given in full) ?
Result block: 0.816% [at 19.1 µM] (inactive)

Query block: C[C@@H]1O[C@@H](O[C@@H]2[C@@H](O)[C@H](O[C@@H]3[C@@H](O)[C@@H](O)[C@H](O[C@H]4[C@H](OC(=O)[C@]56CCC(C)(C)C[C@H]5C5=CCC7[C@@]8(C)C[C@H](O)[C@H](O[C@@H]9O[C@H](C(=O)O)[C@@H](O)[C@H](O)[C@H]9O)[C@@](C)(CO)C8[C@H](O)C[C@@]7(C)[C@]5(C)C[C@H]6O)O[C@@H](CO)[C@@H]4O)O[C@H]3C)OC[C@H]2O)[C@H](O)[C@H](O)[C@H]1O (stereo not given in full) ?
Result block: 24.9% [at 19.1 µM] (inactive)

Query block: C[C@@H]1O[C@@H](O[C@H]2[C@H](OC(=O)[C@]34CCC(C)(C)C[C@H]3C3=CCC5[C@@]6(C)CC[C@H](O[C@@H]7O[C@H](CO[C@@H]8OC[C@H](O)[C@H](O)[C@H]8O)[C@@H](O)[C@H](O)[C@H]7O)C(C)(C)C6CC[C@@]5(C)[C@]3(C)C[C@H]4O)OC[C@@H](O)[C@@H]2O)[C@H](O)[C@H](O[C@@H]2OC[C@](O)(CO)[C@H]2O)[C@H]1O[C@@H]1OC[C@H](O)[C@H](O[C@@H]2OC[C@@H](O)[C@H](O)[C@H]2O)[C@H]1O (stereo not given in full) ?
Result block: -5.76% [at 19.1 µM] (inactive)

Query block: `NC(=O)[C@H](Cc1ccccc1)NC(=O)[C@H](CCCN=C(N)N)NC(=O)C12CC3CC(CC(C3)C1)C2` ?
Result block: -7.71% [at 19.1 µM] (inactive)

Query block: CC(=O)OCC1OC(OC2COC(OC3COC(OC4C(OC5C(CO)OC(OC6CCC7(C)C(CCC8(C)C7CC=C7C9CC(C)(C)CCC9(C(=O)OC9OC(CO)C(O)C(O)C9OC9OCC(OC%10OCC(O)(CO)C%10O)C(O)C9O)C(O)CC78C)C6(C)C)C(O)C5O)OCC(O)C4O)C(O)C3O)C(O)C2O)C(OC(=O)/C=C/c2ccccc2)C(O)C1OC(C)=O (stereo not given) ?
Result block: 8.67% [at 19.1 µM] (inactive)

Query block: C/C=C(\C)C(=O)OC1CC2C(CC=C3CC(OC4CC(OC)C(OC5CC(OC)C(OC6CC(OC)C(OC7CC(OC)C(OC8CC(OC)C(OC9OC(CO)C(O)C(O)C9O)C(C)O8)C(C)O7)C(C)O6)C(C)O5)C(C)O4)CCC32C)C2(O)CCC(C(C)=O)C12C (stereo not given) ?
Result block: 20.8% [at 19.1 µM] (inactive)

Query block: CC(=O)O[C@@H]1[C@H](O[C@@H]2O[C@H](CO)[C@@H](O)[C@H](O)[C@H]2O)[C@@H](O[C@@H]2O[C@@H](C)[C@H](O)[C@@H](O[C@@H]3O[C@H](CO)[C@@H](O)[C@H](O)[C@H]3O)[C@H]2O)[C@H](OC(=O)[C@]23CCC(C)(C)C[C@H]2C2=CCC4[C@@]5(C)C[C@H](O)[C@H](O[C@@H]6O[C@H](C(=O)O)[C@@H](O)[C@H](O)[C@H]6O)[C@@](C)(C(=O)O)C5CC[C@@]4(C)[C@]2(C)CC3)O[C@@H]1C (stereo not given in full) ?
Result block: 16.2% [at 19.1 µM] (inactive)

Query block: C[C@@H]1O[C@@H](O[C@H]2[C@H](OC(=O)[C@]34CCC(C)(C)C[C@H]3C3=CCC5[C@@]6(C)CC[C@H](O[C@@H]7O[C@H](CO[C@@H]8OC[C@H](O)[C@H](O)[C@H]8O[C@@H]8OC[C@@H](O)[C@H](O)[C@H]8O)[C@@H](O)[C@H](O)[C@H]7O)C(C)(C)C6CC[C@@]5(C)[C@]3(C)C[C@H]4O)O[C@H](CO)[C@@H](O)[C@@H]2O)[C@H](O[C@@H]2O[C@H](CO)[C@@H](O)[C@H](O)[C@H]2O)[C@H](O)[C@H]1O[C@@H]1OC[C@@H](O)[C@H](O[C@@H]2OC[C@@H](O)[C@H](O)[C@H]2O)[C@H]1O (stereo not given in full) ?
Result block: 2.96% [at 19.1 µM] (inactive)

Query block: C/C=C(/C)C(=O)OC1C(OC(C)=O)C23C(O)OC4(CCC5C6(C)CCC(OC7OC(C(=O)O)C(O)C(OC8OC(CO)C(O)C(O)C8OC8OC(C)C(O)C(O)C8OC8OCC(O)C(O)C8O)C7OC7OC(CO)C(O)C(O)C7O)C(C)(C)C6CCC5(C)C4(C)CC2OC(C)=O)C3CC1(C)C (stereo not given) ?
Result block: -1.79% [at 19.1 µM] (inactive)
